Molecular target: T1, hPD-1 Avi-Tag Biotin (AcroBiosystems PD1-H82E4) (human, UniProt Q15116 25-167, biotin on Avi-Tag)
T1 construct: bought; also called human PD-1
T1 sequence (Q15116 25-167 limits assumed): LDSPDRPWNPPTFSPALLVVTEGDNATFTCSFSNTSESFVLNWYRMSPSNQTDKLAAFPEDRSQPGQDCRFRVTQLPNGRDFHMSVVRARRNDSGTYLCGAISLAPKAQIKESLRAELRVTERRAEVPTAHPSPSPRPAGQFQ
Assay: SPR, Ab captured, PD-1 analyte
kon reference
Give a bare numeral; the unit M⁻¹ s⁻¹ is implied.

Study these solved cases before continuing.
# BINDER, UNIT_TEXT, kon
measured = [
    ("XVT458-z2-m3 (antibody, V domains shown, IgG format; also called z2_XVT458m3) VH: QVQLVQSGAEVKKPGASVKVSCKASGYTFTNFYIHWVRQAPGQGLEWMGRIYPNYGITAYNQKFKDRVTMTVDTSTSTAYMELRSLRSDDTAVYYCARGYSYAMDYWGQGTTVTVSS VL: DIQMTQSPSSVSASVGDRVTITCSASQGISGDLNWYQQKPGKAPKLLIYHTSQRHSDVPSRFSGSGSGTDFTLTISSLQPEDFATYYCQGYSKDLLTFGGGTKLEIK", "M⁻¹ s⁻¹", 158000),
    ("XVT458-z2-m5 (antibody, V domains shown, IgG format; also called z2_XVT458m5) VH: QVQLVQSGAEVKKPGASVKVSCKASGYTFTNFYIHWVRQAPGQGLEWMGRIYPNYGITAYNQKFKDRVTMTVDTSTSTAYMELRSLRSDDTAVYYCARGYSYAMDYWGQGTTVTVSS VL: DIQMTQSPSSVSASVGDRVTITCSASQGIYGDLNWYQQKPGKAPKLLIYHTSSRHSGVPSRFSGSGSGTDFTLTISSLQPEDFATYYCQAYSKDLLTFGGGTKLEIK", "M⁻¹ s⁻¹", 124000),
    ("XVT458-z2-m2 (antibody, V domains shown, IgG format; also called z2_XVT458m2) VH: QVQLVQSGAEVKKPGASVKVSCKASGYTFTNFYIHWVRQAPGQGLEWMGRIYPNYGFTAYNQKFKDRVTMTVDTSTSTAYMELRSLRSDDTAVYYCARGYSYAMDYWGQGTTVTVSS VL: DIQMTQSPSSVSASVGDRVTITCSASQGIYGDLNWYQQKPGKAPKLLIYHTSSLHSGVPSRFSGSGSGTDFTLTISSLQPEDFATYYCQAYSKDLLTFGGGTKLEIK", "M⁻¹ s⁻¹", 153000),
]

kon measured on XVT458-z2-m6 (antibody, V domains shown, IgG format; also called z2_XVT458m6) VH: QVQLVQSGAEVKKPGASVKVSCKASGYTFTNFYIHWVRQAPGQGLEWMGSIYPNYGITAYNQKFKDRVTMTVDTSTSTAYMELRSLRSDDTAVYYCARGYSYAMDYWGQGTTVTVSS VL: DIQMTQSPSSVSASVGDRVTITCSASQGISGDLNWYQQKPGKAPKLLIYHTSQLHSDVPSRFSGSGSGTDFTLTISSLQPEDFATYYCQGYSKDLLTFGGGTKLEIK = 231000
